assay: protein stability index of a GFP-peptide fusion (yeast GPS) (PSI 1-4); higher = more stable; sorted into four equal gates, so the index is relative within each strain; details: san1∆
# protein stability index binned as lower segment: < 2; middle segment: ≥ 2 and < 3; upper segment: ≥ 3

Reference set, count: 5
{"item-sequence": "GNPGRIRVLFKENGQLI [SEC65]", "category-label": "middle segment"}
{"item-sequence": "SEVGDAFIFGLQDELKE [SMC3]", "category-label": "upper segment"}
{"item-sequence": "VDLIEKFLRYNPLEKRD [RPB10]", "category-label": "upper segment"}
{"item-sequence": "FKSYATRTVITDWDPQF [SMC2]", "category-label": "middle segment"}
{"item-sequence": "LALSSNISRDFQSYIVS [COR1]", "category-label": "middle segment"}

Band of SEGFEPTFSTHAQLLLS [PRP8] ? lower segment

Band of RQVYKPVLDNPFTNEAH [POP3] ? middle segment

Band of GILLLDSLIQLANRSKE [YJL039C/NUP192] ? lower segment

Band of VPAVVDDPLENMFGDYS [SNF6] ? middle segment

Band of MRDKSFGRTLASVTKEI [RPL12A] ? middle segment

Band of LRFGEGASGEERLMSRP [PUP2] ? upper segment

Band of EGQENNYNSTSRSTEKK [SIR4] ? middle segment

Band of NENDKIYLLFQSSGKLK [YDL116W/NUP84] ? middle segment

----------
Reported protein stability index values for a set of sequences
experiment: protein stability index of a GFP-peptide fusion (yeast GPS) (PSI 1-4); higher = more stable; sorted into four equal gates, so the index is relative within each strain; settings: san1∆
Give your answer as a number; write no unit.

{"item-sequence": "RIGVLQARMMQQQSADH [NSL1]", "protein stability index": 3.06}
{"item-sequence": "EKELKIFTDAGRVYRPL [RPB2]", "protein stability index": 3.09}
{"item-sequence": "DSVLQLASFEKTTDHLF [RPO31]", "protein stability index": 2.83}
{"item-sequence": "MEEEQQRQERLRQQQQQ [RPN10]", "protein stability index": 3.37}
{"item-sequence": "SLDTLELESITESITHD [NUT1]", "protein stability index": 2.76}
{"item-sequence": "EDGPRPFKVFLDIGLQR [RPL5]", "protein stability index": 3.06}

Please list protein stability index recorded for the sequence DEDDDQPMISPDNSIFG [SWI3] 3.2

Please list protein stability index recorded for the sequence LIIRCRVVRPKSLDAET [RPO21] 2.22

Please list protein stability index recorded for the sequence ASSKAVTRGISVLKDSD [PRE1] 2.89

Please list protein stability index recorded for the sequence RQILFKYPMYMQLEEEL [MED6] 2.37

Please list protein stability index recorded for the sequence QEQVYPDFKPWEHTAAE [SRB8] 3.17

Please list protein stability index recorded for the sequence ILQILNLMILNTKVPVD [YML103C/NUP188] 1.12

Please list protein stability index recorded for the sequence DANPSSQIIARNEEILR [SMC2] 3.21

Please list protein stability index recorded for the sequence DLKSLNVRDDMKPSDNI [SSN2] 2.62

----------
experiment: protein stability index of a GFP-peptide fusion (yeast GPS) (PSI 1-4); higher = more stable; sorted into four equal gates, so the index is relative within each strain; settings: doa10∆
quantity: protein stability index
Give your answer as a number; write no unit.

Solved cases below.
{"item-sequence": "NTGIVSSTTGMSYVVRI [RPT3]", "protein stability index": 3.17}
{"item-sequence": "ISCPLIGVIQLAHYVVT [FAS1]", "protein stability index": 1.57}
{"item-sequence": "NTTTRVIPQVEVGNRKH [SNF5]", "protein stability index": 2.21}
{"item-sequence": "REDIDDPLAKVNVLLQS [BRR2]", "protein stability index": 2.91}
{"item-sequence": "ANTSNNLFGATANANKP [YJL041W/NSP1]", "protein stability index": 3.32}

Please list protein stability index recorded for the sequence NNDVFTIGPYRARKDRM [SSN3] 3.67

Please list protein stability index recorded for the sequence LALSSNISRDFQSYIVS [COR1] 2.03

Please list protein stability index recorded for the sequence TGWITQSTPVLLNHGER [RPN1] 2.61

----------
assay: protein stability index of a GFP-peptide fusion (yeast GPS) (PSI 1-4); higher = more stable; sorted into four equal gates, so the index is relative within each strain; conditions: ubr1∆
Note to self: values exactly at 3 are Satisfied. So protein stability index at or above 3 is Satisfied, below is Not satisfied.

Reference set, count: 5
{"item-sequence": "HKQELQDLILDLKKKLN [SMC4]", "category-label": "Not satisfied"}
{"item-sequence": "SYAVSPYAQKPLQGIFH [QCR8]", "category-label": "Not satisfied"}
{"item-sequence": "ILSDSPLELSAPIGKHY [DIS3]", "category-label": "Not satisfied"}
{"item-sequence": "SVDESARIKDAFITQLE [YJL039C/NUP192]", "category-label": "Not satisfied"}
{"item-sequence": "ADSAVNRQTLMFTATMT [PRP28]", "category-label": "Not satisfied"}

Dear colleague, could you confirm whether LEVFHHFFKWIEFIVYH [SRB8] has protein stability index at or above 3? Not satisfied

Dear colleague, could you confirm whether AAAAVCEKWAASSWAKK [RPL14A] has protein stability index at or above 3? Not satisfied

----------
assay: protein stability index of a GFP-peptide fusion (yeast GPS) (PSI 1-4); higher = more stable; sorted into four equal gates, so the index is relative within each strain; settings: doa10∆
quantity: protein stability index

Solved cases below.
{"item-sequence": "VSEDLLDERGHEKIEDE [RPN4]", "protein stability index": 3.36}
{"item-sequence": "MDALTLMKCCHEAYSII [RRP45]", "protein stability index": 1.77}
{"item-sequence": "VLVDEIKSQYYSRISKL [YIL149C/MLP2]", "protein stability index": 2.41}

Please list protein stability index recorded for the sequence KKRRGSRIYKTIKVAGT [SNU114] 1.6

Please list protein stability index recorded for the sequence NPIDPFNIIREFRSAAG [YDL116W/NUP84] 3.14

Please list protein stability index recorded for the sequence NNGLPMKNKAETTTEED [ITC1] 2.35

Please list protein stability index recorded for the sequence LYYPQKPLGTTRAMEYL [RPB2] 2.17

Please list protein stability index recorded for the sequence YKLGKVKKVQLGKKGVP [RPS4A] 2.85

Please list protein stability index recorded for the sequence SLRTPIAPKITPKVVRS [SEC65] 3.16

Please list protein stability index recorded for the sequence ISTLQVKLYGREGSSAR [RPB2] 2.71

----------
test: protein stability index of a GFP-peptide fusion (yeast GPS) (PSI 1-4); higher = more stable; sorted into four equal gates, so the index is relative within each strain; conditions: san1∆
quantity: protein stability index
Give your answer as a number; write no unit.

{"item-sequence": "LKLPLEINYAFSMDEEF [SIR3]", "protein stability index": 2.73}
{"item-sequence": "LELAGMDALYEKIWFAI [SIR3]", "protein stability index": 1.21}
{"item-sequence": "GLFQVLHNFESVAPTKQ [NUT1]", "protein stability index": 2.75}
{"item-sequence": "SLKDLSSLRNQELLNAE [RPN3]", "protein stability index": 3.34}
{"item-sequence": "SNVFGSNNSTTNTFGSN [YJL041W/NSP1]", "protein stability index": 3.22}
{"item-sequence": "SEKGFSKEQIHGSIIIL [YCS4]", "protein stability index": 2.76}

Attention now turns to another entry.
Please list protein stability index recorded for the sequence SVMDPITSKRKAELLLK [DIS3] 2.55

----------
assay: protein stability index of a GFP-peptide fusion (yeast GPS) (PSI 1-4); higher = more stable; sorted into four equal gates, so the index is relative within each strain; details: doa10∆
quantity: protein stability index
Give your answer as a number; write no unit.

Solved cases below.
{"item-sequence": "LKAKNQEEEGELEHLTK [DSN1]", "quantity": "protein stability index", "observed-value": 3.42}
{"item-sequence": "KVLAAHTKFEVAIGLNG [RRP40]", "quantity": "protein stability index", "observed-value": 2.44}
{"item-sequence": "ERTKLQEHTIFTQLKKN [SNU114]", "quantity": "protein stability index", "observed-value": 1.46}
{"item-sequence": "YKTSKAAQDVWNRADNH [FAS1]", "quantity": "protein stability index", "observed-value": 2.96}
{"item-sequence": "IRNCATEAGFFAIRDDR [RPT4]", "quantity": "protein stability index", "observed-value": 2.82}

Please list protein stability index recorded for the sequence VGVDQLSIELEGGKNQA [YJL039C/NUP192] 3.08

Please list protein stability index recorded for the sequence DEKKDSDSSKPAFSFGT [YJL041W/NSP1] 2.75

Please list protein stability index recorded for the sequence DDEDEDDSDNVMSSDDE [PRE10] 3.17

Please list protein stability index recorded for the sequence LNIGKNFAHSDSLSVPK [SIR4] 3.17

Please list protein stability index recorded for the sequence FHIACSVGNLEVVKSLY [NAS6] 2.08

Please list protein stability index recorded for the sequence STAIKSLVALGIDPQDL [CDC53] 2.29

Please list protein stability index recorded for the sequence VVNITHHELVPKHIRLS [RPB5] 2.52

Please list protein stability index recorded for the sequence NLIIFLYKFNGWSLVGR [YML103C/NUP188] 1.59

Please list protein stability index recorded for the sequence VSMKANKYQIKKAVKEL [RPL25] 1.18
